Here the recorded abundance fitness is given for each entry.
B1: Gamma-crystallin C, residues 91 to 170; numbered along this chain, P07315 (parent)
chain: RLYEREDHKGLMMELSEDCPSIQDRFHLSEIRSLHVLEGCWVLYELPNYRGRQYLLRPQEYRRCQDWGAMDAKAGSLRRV

variants of: B1; test: abundance fitness (aPCA) (normalised: wild type 0, dead -1); higher = more abundant; growth selection in yeast, the domain comes from the species named; conditions: Homo sapiens
// no unit, no text: just the number

{"VARIANT": "R25D", "ASSAY ENDPOINT": "abundance fitness", "EXPERIMENTAL RESULT": -0.396}
{"VARIANT": "R52A", "ASSAY ENDPOINT": "abundance fitness", "EXPERIMENTAL RESULT": 0.009}
{"VARIANT": "Q53C", "ASSAY ENDPOINT": "abundance fitness", "EXPERIMENTAL RESULT": -0.219}

Now examine the next entry.
Lookup result for P20Q ; measured abundance fitness: -0.442
